# system-name: Cholecystokinin receptor type A (Homo sapiens, UniProt P32238, N333A)
# Sequence (P32238 whole entry N333A): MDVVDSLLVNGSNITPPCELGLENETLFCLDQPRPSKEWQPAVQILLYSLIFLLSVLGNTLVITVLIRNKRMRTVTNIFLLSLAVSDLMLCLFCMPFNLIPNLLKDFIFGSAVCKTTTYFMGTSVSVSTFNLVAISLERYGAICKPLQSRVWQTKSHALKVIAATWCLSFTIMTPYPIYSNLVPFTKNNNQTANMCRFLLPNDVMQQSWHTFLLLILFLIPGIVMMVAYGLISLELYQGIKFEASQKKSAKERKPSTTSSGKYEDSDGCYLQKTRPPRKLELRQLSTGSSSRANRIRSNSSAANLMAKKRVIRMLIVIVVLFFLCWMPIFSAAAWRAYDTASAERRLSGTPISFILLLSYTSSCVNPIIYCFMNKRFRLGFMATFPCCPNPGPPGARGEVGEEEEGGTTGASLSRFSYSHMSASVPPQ
# measurement-description: Displacement of [125I]-BH-JMV-179 from human CCK1 receptor N333A mutant expressed in COS7 cells after 60 mins by gamma counting
measure-name: Ki (nM)
The figure you give is taken to be in nM; do not add the unit.

Briefly, Ki measured for "O=C(Nc1ccccc1C(=O)N[C@H](CCc1ccccc1)C(=O)O)c1cc2ccccc2[nH]1" : 5

----------
# system-name: Cholecystokinin receptor type A (Homo sapiens, UniProt P32238, R336A)
# Sequence (P32238 whole entry R336A): as the sequence (P32238 whole entry N333A) above, with A333N, R336A counted along it
# measurement-description: Displacement of [3H]-SR-27897 from human CCK1 R336A mutant receptor expressed in COS7 cells after 60 mins […]
# Format: cell-based, COS-7
measure-name: Ki (µM)
The figure you give is taken to be in µM; do not add the unit.

Briefly, Ki measured for "O=C(Nc1ccccc1C(=O)N[C@H](CCc1ccccc1)C(=O)O)c1cc2ccccc2[nH]1" : 0.522

----------
# system-name: Cholecystokinin receptor type A (Homo sapiens, UniProt P32238)
# Sequence (P32238 whole entry): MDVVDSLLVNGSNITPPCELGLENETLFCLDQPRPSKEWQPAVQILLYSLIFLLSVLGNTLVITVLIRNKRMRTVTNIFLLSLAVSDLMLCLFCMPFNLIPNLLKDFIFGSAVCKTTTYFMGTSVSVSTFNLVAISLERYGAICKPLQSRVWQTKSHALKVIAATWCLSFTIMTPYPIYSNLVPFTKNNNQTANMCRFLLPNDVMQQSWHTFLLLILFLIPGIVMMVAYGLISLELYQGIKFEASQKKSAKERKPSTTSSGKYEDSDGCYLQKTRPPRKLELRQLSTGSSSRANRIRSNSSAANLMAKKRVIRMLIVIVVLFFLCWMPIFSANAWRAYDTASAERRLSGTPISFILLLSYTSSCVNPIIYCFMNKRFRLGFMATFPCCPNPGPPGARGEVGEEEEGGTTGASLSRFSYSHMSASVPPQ
# measurement-description: Displacement of [125I]-BH-JMV-179 from wild type human CCK1 receptor expressed in COS7 cells after 60 mins by gamma counting
# Assay type: cell-based, COS-7
measure-name: Ki (nM)
The figure you give is taken to be in nM; do not add the unit.

Briefly, Ki measured for "O=C(Nc1ccccc1C(=O)N[C@H](CCc1ccccc1)C(=O)O)c1cc2ccccc2[nH]1" : 0.32

----------
# system-name: Cholecystokinin receptor type A (Homo sapiens, UniProt P32238, F107A)
# Sequence (P32238 whole entry F107A): as the sequence (P32238 whole entry) above, with F107A counted along it
# measurement-description: Displacement of [3H]-SR-27897 from human CCK1 F107A mutant receptor expressed in COS7 cells after 60 mins […]
measure-name: pKi
pKi is a log-scale quantity: -log10 of the concentration expressed in molar.

Briefly, pKi measured for "O=C(Nc1ccccc1C(=O)N[C@H](CCc1ccccc1)C(=O)O)c1cc2ccccc2[nH]1" : 8.42

----------
Here the recorded IC50 is given for each entry.
# system-name: UniProtKB P30551
# Sequence (P30551 whole entry): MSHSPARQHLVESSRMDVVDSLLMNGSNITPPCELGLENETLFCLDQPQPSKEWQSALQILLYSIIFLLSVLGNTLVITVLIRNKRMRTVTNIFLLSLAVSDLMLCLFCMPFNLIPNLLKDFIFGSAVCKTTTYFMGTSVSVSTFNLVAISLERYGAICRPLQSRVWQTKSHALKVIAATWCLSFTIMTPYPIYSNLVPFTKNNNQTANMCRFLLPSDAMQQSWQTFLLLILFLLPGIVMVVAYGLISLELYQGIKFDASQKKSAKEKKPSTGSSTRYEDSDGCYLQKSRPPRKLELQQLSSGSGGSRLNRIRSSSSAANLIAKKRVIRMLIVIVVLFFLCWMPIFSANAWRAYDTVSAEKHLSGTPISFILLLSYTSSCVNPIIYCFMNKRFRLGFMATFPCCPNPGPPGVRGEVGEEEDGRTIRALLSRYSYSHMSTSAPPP
The figure you give is taken to be in nM; do not add the unit.

[[record]]
molecule = "O=C(Nc1ccccc1C(=O)NC(CCc1ccccc1)C(=O)O)c1cc2ccccc2[nH]1 (racemic)"
system_name = "UniProtKB P30551"
measure_name = "IC50"
measured = 15.7

[[record]]
molecule = "O=C(Nc1ccccc1C(=O)NC(CCCc1ccccc1)C(=O)O)c1cc2ccccc2[nH]1 (racemic)"
system_name = "UniProtKB P30551"
measure_name = "IC50"
measured = 107

[[record]]
molecule = "O=C(Nc1ccccc1C(=O)NC(C(=O)O)c1ccccc1)c1cc2ccccc2[nH]1 (racemic)"
system_name = "UniProtKB P30551"
measure_name = "IC50"
measured = 317

[[record]]
molecule = "O=C(Nc1ccccc1C(=O)N[C@@H](CCc1ccccc1)C(=O)O)c1cc2ccccc2[nH]1"
system_name = "UniProtKB P30551"
measure_name = "IC50"
measured = 313


We now examine a further molecule.
Record "O=C(Nc1ccccc1C(=O)N[C@H](CCc1ccccc1)C(=O)O)c1cc2ccccc2[nH]1" has UniProtKB P30551 IC50 equal to 9.5

----------
Here the recorded pIC50 is given for each entry.
# measurement-description: Displacement of [125I]-BH-CCK8 from CCK2 receptor in Hartley guinea pig cerebral cortex after 120 hrs by gamma-counting
# Assay type: tissue-based, Cavia porcellus
# experimental-setup: in the assay text read “after 120 mins” for “after 120 hrs”; read-out: IC50
pIC50 is a log-scale quantity: -log10 of the concentration expressed in molar.

Observe how each entry below is paired with its result.
[[record]]
molecule = "O=C(Nc1ccccc1NC(=O)C(CCc1ccccc1)C(=O)O)c1cc2ccccc2[nH]1 (racemic)"
measured = 5.21

[[record]]
molecule = "O=C(Nc1ccccc1C(=O)N[C@@H](CCc1ccccc1)C(=O)O)c1cc2ccccc2[nH]1"
measured = 5.10

[[record]]
molecule = "O=C(Nc1ccccc1C(=O)N[C@H](CCc1ccccc1)C(=O)O)c1cc2ccccc2[nH]1"
measured = 5.42

[[record]]
molecule = "O=C(Nc1ccccc1C(=O)NC(CCCc1ccccc1)C(=O)O)c1cc2ccccc2[nH]1 (racemic)"
measured = 6.22

[[record]]
molecule = "O=C(Nc1ccccc1C(=O)NC(CCc1ccccc1)C(=O)O)c1cc2ccccc2[nH]1 (racemic)"
measured = 5.29


Briefly, pIC50 measured for O=C(Nc1ccccc1C(=O)NC(Cc1ccccc1)C(=O)O)c1cc2ccccc2[nH]1 (racemic) : 4.79

----------
# system-name: Cholecystokinin receptor type A (Homo sapiens, UniProt P32238, R197A)
# measurement-description: Displacement of [3H]-SR-27897 from human CCK1 R197A mutant receptor expressed in COS7 cells after 60 mins […]
measure-name: pKi
pKi is a log-scale quantity: -log10 of the concentration expressed in molar.

Record "O=C(Nc1ccccc1C(=O)N[C@H](CCc1ccccc1)C(=O)O)c1cc2ccccc2[nH]1" has Cholecystokinin receptor type A (Homo sapiens, UniProt P32238, R197A) pKi equal to 7.71

----------
# system-name: Cholecystokinin receptor type A (Homo sapiens, UniProt P32238, M195A)
# Sequence (P32238 whole entry M195A): as the sequence (P32238 whole entry N333A) above, with M195A, A333N counted along it
# measurement-description: Displacement of [3H]-SR-27897 from human CCK1 M195A mutant receptor expressed in COS7 cells after 60 mins […]
measure-name: Ki (nM)
The figure you give is taken to be in nM; do not add the unit.

Briefly, Ki measured for "O=C(Nc1ccccc1C(=O)N[C@H](CCc1ccccc1)C(=O)O)c1cc2ccccc2[nH]1" : 7.6

----------
# system-name: Cholecystokinin receptor type A (Homo sapiens, UniProt P32238, W39A)
# Sequence (P32238 whole entry W39A): as the sequence (P32238 whole entry N333A) above, with W39A, A333N counted along it
# measurement-description: Displacement of [3H]-SR-27897 from human CCK1 W39A mutant receptor expressed in COS7 cells after 60 mins […]
measure-name: Ki (nM)
The figure you give is taken to be in nM; do not add the unit.

Record "O=C(Nc1ccccc1C(=O)N[C@H](CCc1ccccc1)C(=O)O)c1cc2ccccc2[nH]1" has Cholecystokinin receptor type A (Homo sapiens, UniProt P32238, W39A) Ki equal to 3.7

----------
Here the recorded Ki is given for each entry.
# system-name: Cholecystokinin receptor type A (Homo sapiens, UniProt P32238)
# measurement-description: Displacement of [125I]BH-(Thr,-Nle)-CCK-9 from human CCK1 receptor expressed in COS-7 cells after 60 mins by gamma counting
# Assay type: cell-based
Record the result as number plus unit.

[[record]]
molecule = "O=C(Nc1ccccc1C(=O)NC(CCc1ccccc1)C(=O)O)c1cc2ccccc2[nH]1 (racemic)"
measured = "0.0039 µM"


Briefly, Ki measured for "O=C(Nc1ccccc1C(=O)N[C@H](CCc1ccccc1)C(=O)O)c1cc2ccccc2[nH]1" : 0.0023 µM

Briefly, Ki measured for "O=C(Nc1ccccc1C(=O)N[C@@H](CCc1ccccc1)C(=O)O)c1cc2ccccc2[nH]1" : 0.973 µM

Briefly, Ki measured for O=C(Nc1ccccc1C(=O)NC(Cc1ccccc1)C(=O)O)c1cc2ccccc2[nH]1 (racemic) : 0.0598 µM

----------
# system-name: Cholecystokinin receptor type A (Homo sapiens, UniProt P32238, F330A)
# Sequence (P32238 whole entry F330A): as the sequence (P32238 whole entry N333A) above, with F330A, A333N counted along it
# measurement-description: Displacement of [3H]-SR-27897 from human CCK1 F330A mutant receptor expressed in COS7 cells after 60 mins […]
measure-name: Ki (nM)
The figure you give is taken to be in nM; do not add the unit.

Briefly, Ki measured for "O=C(Nc1ccccc1C(=O)N[C@H](CCc1ccccc1)C(=O)O)c1cc2ccccc2[nH]1" : 4.9

----------
Here the recorded Ratio IC50 is given for each entry.
# measurement-description: Apparent selectivity index, ratio of IC50 for CCK2 receptor in Hartley guinea pig cerebral cortex to IC50 for CCK1 receptor in Sprague-Dawley rat pancreatic acini
# Assay type: tissue-based
The response must contain the number and no unit.

Observe how each entry below is paired with its result.
[[record]]
compound = "O=C(Nc1ccccc1C(=O)NC(CCc1ccccc1)C(=O)O)c1cc2ccccc2[nH]1 (racemic)"
measure_name = "Ratio IC50"
measured = 324

[[record]]
compound = "O=C(Nc1ccccc1C(=O)NC(Cc1ccccc1)C(=O)O)c1cc2ccccc2[nH]1 (racemic)"
measure_name = "Ratio IC50"
measured = 83

[[record]]
compound = "O=C(Nc1ccccc1NC(=O)C(CCc1ccccc1)C(=O)O)c1cc2ccccc2[nH]1 (racemic)"
measure_name = "Ratio IC50"
measured = 8


We now examine a further compound.
Briefly, Ratio IC50 measured for O=C(Nc1ccccc1C(=O)NC(CCCc1ccccc1)C(=O)O)c1cc2ccccc2[nH]1 (racemic) : 6

----------
# measurement-description: Antagonist activity at CCK1 receptor in Hartley guinea pig gall bladder assessed as inhibition of CCK8-induced contraction
# Format: functional, tissue-based, Cavia porcellus
Here the recorded pIC50 is given for each entry.
pIC50 is a log-scale quantity: -log10 of the concentration expressed in molar.

Observe how each entry below is paired with its result.
[[record]]
molecule = "O=C(Nc1ccccc1C(=O)NC(CCc1ccccc1)C(=O)O)c1cc2ccccc2[nH]1 (racemic)"
measured = 7.31

[[record]]
molecule = "O=C(Nc1ccccc1C(=O)N[C@@H](CCc1ccccc1)C(=O)O)c1cc2ccccc2[nH]1"
measured = 6.38


We now examine a further molecule.
Briefly, pIC50 measured for "O=C(Nc1ccccc1C(=O)N[C@H](CCc1ccccc1)C(=O)O)c1cc2ccccc2[nH]1" : 7.36
